// data source = ChEMBL document CHEMBL4834469

- experiment-summary: in vivo
- test-settings: Sprague-Dawley, rat, iv, 10 mg/kg
- Description: Plasma concentration in anesthetized Sprague-Dawley rat upto 10 mg/kg, iv administered as single dose measured after 30 mins
measured-parameter: concentration at 0.5 h (ng/mL)
Write down the numeric answer in ng/mL and omit the unit.

Quote concentration at 0.5 h reported for `COc1ccc(F)cc1-c1ccnc2[nH]c(C3=CCN([C@H]4CC[C@H](C(=O)O)CC4)CC3)cc12` please.
5500

Quote concentration at 0.5 h reported for `COc1ccc(F)cc1-c1c(F)cnc2[nH]c(C3=CCN([C@H]4CC[C@H](C(=O)O)CC4)CC3)cc12` please.
9000

----------
- experiment-summary: in vitro
- test-settings: rat, plasma
- Description: Plasma protein binding in rat
measured-parameter: fraction unbound
Hey, just send me the number, nothing else.

Quote fraction unbound reported for `COc1ccc(F)cc1-c1ccnc2[nH]c(C3=CCN([C@H]4CC[C@H](CC(=O)O)CC4)CC3)cc12` please.
0.087

Quote fraction unbound reported for `COc1ccc(F)cc1-c1c(F)cnc2[nH]c(C3=CCN([C@H]4CC[C@H](C(=O)O)CC4)CC3)cc12` please.
0.106

Quote fraction unbound reported for `CCOC(=O)NS(=O)(=O)N1CC=C(c2cc3c(-c4cc(F)ccc4OC)ccnc3[nH]2)CC1` please.
0.042

Quote fraction unbound reported for `COc1ccc(F)cc1-c1c(F)cnc2[nH]c(C3=CCN([C@H]4CC[C@@H](C(=O)O)CC4)CC3)cc12` please.
0.099

Quote fraction unbound reported for `COc1ccc(F)cc1-c1ccnc2[nH]c(C3=CCN([C@H]4CC[C@H](C(=O)O)CC4)CC3)cc12` please.
0.09

Quote fraction unbound reported for COc1ccc(F)cc1-c1ccnc2[nH]c(C3=CCC(N[C@@H](C(=O)O)C(C)C)CC3)cc12 (stereo not given in full) please.
0.057

Quote fraction unbound reported for `COc1ccc(F)cc1-c1c(F)cnc2[nH]c(C3=CCN([C@H]4CC[C@H](CC(=O)O)CC4)CC3)cc12` please.
0.082

Quote fraction unbound reported for COc1ccc(F)cc1-c1ccnc2[nH]c(C3=CCC(C(=O)O)CC3)cc12 (stereo not given) please.
0.004

Quote fraction unbound reported for `COc1ccc(F)cc1-c1ccnc2[nH]c(C3=CCN([C@H]4CC[C@@H](C(=O)O)CC4)CC3)cc12` please.
0.16

Quote fraction unbound reported for `COc1ccc(F)cc1-c1ccnc2[nH]c(C3=CCN([C@H]4CC[C@@H](CC(=O)O)CC4)CC3)cc12` please.
0.183

----------
Field: AUC. Provide a value for each of the molecules that follow.
- experiment-summary: in vivo
- test-settings: rat, po, 1 mg/kg
Write down the numeric answer in ng·h/mL and omit the unit.

Quote AUC reported for `COc1ccc(F)cc1-c1ccnc2[nH]c(C3=CCN([C@H]4CC[C@H](CC(=O)O)CC4)CC3)cc12` please.
160

Quote AUC reported for `COc1ccc(F)cc1-c1ccnc2[nH]c(C3=CCN([C@H]4CC[C@H](C(=O)O)CC4)CC3)cc12` please.
400

Quote AUC reported for `COc1ccc(F)cc1-c1ccnc2[nH]c(C3=CCN([C@H]4CC[C@@H](CC(=O)O)CC4)CC3)cc12` please.
40

Quote AUC reported for COc1ccc(F)cc1-c1ccnc2[nH]c(C3=CCC(C(=O)O)CC3)cc12 (stereo not given) please.
3100

Quote AUC reported for `COc1ccc(F)cc1-c1ccnc2[nH]c(C3=CCN([C@H]4CC[C@@H](C(=O)O)CC4)CC3)cc12` please.
160

Quote AUC reported for `COc1ccc(F)cc1-c1c(F)cnc2[nH]c(C3=CCN([C@H]4CC[C@H](CC(=O)O)CC4)CC3)cc12` please.
140

Quote AUC reported for `COc1ccc(F)cc1-c1c(F)cnc2[nH]c(C3=CCN([C@H]4CC[C@@H](C(=O)O)CC4)CC3)cc12` please.
140

Quote AUC reported for `COc1ccc(F)cc1-c1c(F)cnc2[nH]c(C3=CCN([C@H]4CC[C@H](C(=O)O)CC4)CC3)cc12` please.
450

Quote AUC reported for `CCOC(=O)NS(=O)(=O)N1CC=C(c2cc3c(-c4cc(F)ccc4OC)ccnc3[nH]2)CC1` please.
2400

----------
- experiment-summary: in vitro
- test-settings: human, plasma
- Description: Plasma protein binding in human
Label criterion met when fraction unbound < 0.04; otherwise criterion not met.

fraction unbound under 0.04? Item: `COc1ccc(F)cc1-c1ccnc2[nH]c(C3=CCN([C@H]4CC[C@@H](CC(=O)O)CC4)CC3)cc12`
criterion met

fraction unbound under 0.04? Item: `COc1ccc(F)cc1-c1ccnc2[nH]c(C3=CCN([C@H]4CC[C@@H](C(=O)O)CC4)CC3)cc12`
criterion not met

fraction unbound under 0.04? Item: `COc1ccc(F)cc1-c1c(F)cnc2[nH]c(C3=CCN([C@H]4CC[C@@H](C(=O)O)CC4)CC3)cc12`
criterion not met

fraction unbound under 0.04? Item: `COc1ccc(F)cc1-c1c(F)cnc2[nH]c(C3=CCN([C@H]4CC[C@H](C(=O)O)CC4)CC3)cc12`
criterion not met

fraction unbound under 0.04? Item: `COc1ccc(F)cc1-c1ccnc2[nH]c(C3=CCN([C@H]4CC[C@H](C(=O)O)CC4)CC3)cc12`
criterion not met

fraction unbound under 0.04? Item: COc1ccc(F)cc1-c1ccnc2[nH]c(C3=CCC(N[C@@H](C(=O)O)C(C)C)CC3)cc12 (stereo not given in full)
criterion met

fraction unbound under 0.04? Item: `CCOC(=O)NS(=O)(=O)N1CC=C(c2cc3c(-c4cc(F)ccc4OC)ccnc3[nH]2)CC1`
criterion met

fraction unbound under 0.04? Item: COc1ccc(F)cc1-c1ccnc2[nH]c(C3=CCC(C(=O)O)CC3)cc12 (stereo not given)
criterion met

fraction unbound under 0.04? Item: `COc1ccc(F)cc1-c1ccnc2[nH]c(C3=CCN([C@H]4CC[C@H](CC(=O)O)CC4)CC3)cc12`
criterion met

----------
- experiment-summary: in vivo
- test-settings: rat, po, 1 mg/kg
measured-parameter: bioavailability (%)
Write down the numeric answer in % and omit the unit.

Quote bioavailability reported for `COc1ccc(F)cc1-c1c(F)cnc2[nH]c(C3=CCN([C@H]4CC[C@@H](C(=O)O)CC4)CC3)cc12` please.
13

Quote bioavailability reported for `COc1ccc(F)cc1-c1ccnc2[nH]c(C3=CCN([C@H]4CC[C@@H](CC(=O)O)CC4)CC3)cc12` please.
7.9

Quote bioavailability reported for `COc1ccc(F)cc1-c1c(F)cnc2[nH]c(C3=CCN([C@H]4CC[C@H](CC(=O)O)CC4)CC3)cc12` please.
11

Quote bioavailability reported for `COc1ccc(F)cc1-c1ccnc2[nH]c(C3=CCN([C@H]4CC[C@@H](C(=O)O)CC4)CC3)cc12` please.
20

Quote bioavailability reported for `CCOC(=O)NS(=O)(=O)N1CC=C(c2cc3c(-c4cc(F)ccc4OC)ccnc3[nH]2)CC1` please.
64

Quote bioavailability reported for `COc1ccc(F)cc1-c1c(F)cnc2[nH]c(C3=CCN([C@H]4CC[C@H](C(=O)O)CC4)CC3)cc12` please.
28

Quote bioavailability reported for COc1ccc(F)cc1-c1ccnc2[nH]c(C3=CCC(C(=O)O)CC3)cc12 (stereo not given) please.
70

Quote bioavailability reported for `COc1ccc(F)cc1-c1ccnc2[nH]c(C3=CCN([C@H]4CC[C@H](C(=O)O)CC4)CC3)cc12` please.
23

Quote bioavailability reported for `COc1ccc(F)cc1-c1ccnc2[nH]c(C3=CCN([C@H]4CC[C@H](CC(=O)O)CC4)CC3)cc12` please.
21

Quote bioavailability reported for COc1ccc(F)cc1-c1ccnc2[nH]c(C3=CCC(N[C@@H](C(=O)O)C(C)C)CC3)cc12 (stereo not given in full) please.
0.2

----------
- experiment-summary: in vivo
- test-settings: rat, iv, 1 mg/kg
- Description: Volume of distribution at steady state in rat at 1 mg/kg, iv
measured-parameter: log10 Vd (log10 of the value in L/kg)
For clarity, the numbers are log10 values of Vd expressed in L/kg.

Quote log10 Vd reported for COc1ccc(F)cc1-c1ccnc2[nH]c(C3=CCC(C(=O)O)CC3)cc12 (stereo not given) please.
-0.29

Quote log10 Vd reported for `COc1ccc(F)cc1-c1c(F)cnc2[nH]c(C3=CCN([C@H]4CC[C@@H](C(=O)O)CC4)CC3)cc12` please.
0.41

Quote log10 Vd reported for `COc1ccc(F)cc1-c1ccnc2[nH]c(C3=CCN([C@H]4CC[C@H](C(=O)O)CC4)CC3)cc12` please.
0.28

Quote log10 Vd reported for `COc1ccc(F)cc1-c1ccnc2[nH]c(C3=CCN([C@H]4CC[C@@H](CC(=O)O)CC4)CC3)cc12` please.
0.53

Quote log10 Vd reported for COc1ccc(F)cc1-c1ccnc2[nH]c(C3=CCC(N[C@@H](C(=O)O)C(C)C)CC3)cc12 (stereo not given in full) please.
0.00

Quote log10 Vd reported for `COc1ccc(F)cc1-c1ccnc2[nH]c(C3=CCN([C@H]4CC[C@@H](C(=O)O)CC4)CC3)cc12` please.
0.67

Quote log10 Vd reported for `COc1ccc(F)cc1-c1c(F)cnc2[nH]c(C3=CCN([C@H]4CC[C@H](C(=O)O)CC4)CC3)cc12` please.
0.43

Quote log10 Vd reported for `COc1ccc(F)cc1-c1ccnc2[nH]c(C3=CCN([C@H]4CC[C@H](CC(=O)O)CC4)CC3)cc12` please.
0.65

Quote log10 Vd reported for `COc1ccc(F)cc1-c1c(F)cnc2[nH]c(C3=CCN([C@H]4CC[C@H](CC(=O)O)CC4)CC3)cc12` please.
0.46

Quote log10 Vd reported for `CCOC(=O)NS(=O)(=O)N1CC=C(c2cc3c(-c4cc(F)ccc4OC)ccnc3[nH]2)CC1` please.
-0.54
